- System: A549
- Test summary: NCI tumour cell line growth inhibition, 48 h
The source made the active and inactive calls. Cut-off read from the data, not from the text of the source: active = GI50 up to about 1.1 µM and inactive = higher.
Write down the outcome that applies. Available outcomes: yes (1) for active, no (0) for inactive

Molecule	Group label
O=C1C=CC=C/C1=C1\N=C(c2ccccc2OCC(=O)c2ccccc2)SS1	no (0)

Please share the test call associated with Nc1nc(N)c2nc(CN(C=O)c3ccc(C(=O)O)cc3)cnc2n1 .
no (0)

Tell me the assay call for O=C(c1ccccc1)c1ccc2cccc(O)c2n1 please.
no (0)

For CCOC(=O)CCCNC(=O)CCCCC(=O)N(C)C , which call appears in the assay record?
no (0)

Please let me know the test result on file for CN(C)CCn1c(=O)c2ccc(NCCNCCO)c3c(=O)c4ccccc4n(c1=O)c23 .
yes (1)

What is the recorded call for this molecule in the test? CCCCOCN/C(N)=N/C#N
no (0)

====

- Test system: HCT-116
- Test summary: NCI tumour cell line growth inhibition, 48 h
Activity calls are given as the source filed them. Cut-off read from the data, not from the text of the source: active = GI50 up to about 1.1 µM and inactive = higher.
// classify into active, inactive

// below: answered molecules
Molecule	Group label
O=C(/C=C/c1ccc(Oc2cc(C(=O)/C=C/c3ccc(O)cc3)c(O)cc2O)cc1)c1ccc(O)cc1O [RHUSCHALCONE II]	inactive
CCCC1(CCC)c2cc(/C=N\O)ccc2-c2ccc(-c3ccc(C(C)(C)C)cc3)cc21	inactive
CCOC(=O)CCc1c(C)c2c(O)cc(O)cc2oc1=O	inactive

// outcome(item) with item = CCN(CC)CCCNc1ccc2nc(C)n3c4ccc(O)cc4c(=O)c1c23
active

Recorded test call requested for CC(C(=O)ON1C(=O)CCC1=O)c1ccc(C(=O)c2ccccc2)s1 (centres undefined)
inactive

Would you mind telling me which call this test gave COc1ccc(C2C3=CONC3CC3CCCCC32)cc1 (centres undefined) ?
inactive

What outcome does the record of this test show for Cc1cccc(-c2nc3c(C(=O)NCCN(C)C)cccc3[nH]2)c1 ?
active

So what was the verdict on Nc1nc(S)nc(C(=O)Nc2nccs2)c1-c1ccccc1 in this test?
inactive

Record request — test call for COC(=O)[C@@]12OC[C@]34C([C@@H](O)C1O)[C@@]1(C)CC(=O)C(O)=C(C)C1C[C@H]3OC(=O)[C@H](OC(=O)CC(C)C(F)(F)F)[C@H]42 (some centres undefined)
active

====

- Test system: HCT-116
- Test summary: NCI tumour cell line growth inhibition, 48 h
Calls of active or inactive are those of the source. Cut-off read from the data, not from the text of the source: active = GI50 up to about 1.1 µM and inactive = higher.
Your reply should match one of these outcome classes. yes (active), no (inactive)

Compound	Group label
CC1CCCC2(CC[N+](C)(CCC[N+](C)(C)C)CC2)C1 (stereo unspecified)	no

What is the recorded call for this compound in the test? O=C1C(Br)=C(c2ccccc2)C(c2ccccc2)=C1c1ccccc1
no

Which outcome was entered for the compound CC1=C(SCCO)C(=O)c2ccccc2C1=O in this test?
no

Recorded test outcome, item Cc1c(C#N)c(N)[nH]c(=S)c1C#N
no

====

- Tested on: Hs-578T
- Test summary: NCI tumour cell line growth inhibition, 48 h
Activity calls are given as the source filed them. No stated cut-off is given here; in the data, active = GI50 up to about 1.1 µM and inactive = higher.
Parameter measured: GI50

See these solved cases before continuing.
Compound	GI50
C=C1C(=O)O[C@@H]2C(=O)[C@@H](C)[C@@H]3C=CC(=O)[C@@]3(C)[C@@H](OC(=O)/C(C)=C\C)[C@H]12	6.44 µM (inactive)
NC1CC2NC3CCCCC3NC2CC1N (stereo not drawn)	27.9 µM (inactive)
O=C(O)C1CCCN1Cc1cc2ccccc2c2ccccc12 (stereo not drawn)	> 100 µM (inactive)

Observed GI50, Hs-578T, COc1cccc2c(=O)c3c(O)c4cc(N(C)C)ccc4c(OC(C)=O)c3oc12 : 14.3 µM (inactive)

Field GI50 (Hs-578T), entry Oc1ccc2c(c1)OCC1c3ccccc3OC21 (stereo not drawn) : 47.5 µM (inactive)

Measured GI50 (Hs-578T), entry O=C1OS2(OC(=O)c3cccc4cccc2c34)c2ccccc21 (stereo not drawn) : > 100 µM (inactive)

GET /values?item= Cc1[nH]c(-c2ccccc2)c2nc(N(C)C)oc(=O)c12 &system= Hs-578T returns GI50: > 100 µM (inactive)

Known value: Hs-578T GI50 of the compound COC(=O)c1c2c(cc3c1CC1(Cc4ccccc4C1)C3)CCC2 equals 22.9 µM (inactive)
